system: 192522-019-R-J2-PDC complex tumor spheroid viability; assay: Anticancer human tumor 192522-019-R-J2-PDC patient-derived colon adenocarcinoma cell line growth inhibition [POLQ]; conditions: second compound 10 µM; first compound 0.0316 µM; stronger effect = lower value
readout label: viability, T/C (%)
Give the value, in units of %, as a plain number.

Task: Supply measured viability, T/C of CNCc1ccc(-c2[nH]c3cc(F)cc4c3c2CCNC4=O)cc1 + Cc1cccc(N(C)C(=O)C2C(O)CCN2c2nc(C)cc(C(F)(F)F)c2C#N)c1 in your reply.
Result: 107

Task: Supply measured viability, T/C of Nc1ccn(C2OC(CO)C(O)C2(F)F)c(=O)n1 (stereo not given) + COC1C(OC(N)=O)C(O)C(Oc2ccc3c(O)c(NC(=O)c4ccc(O)c(CC=C(C)C)c4)c(=O)oc3c2C)OC1(C)C in your reply.
Result: 95.8

Task: Supply measured viability, T/C of CC(C)n1c(=O)n(C)c2cnc3cc(F)c(-c4ccc(OCCCN5CCCCC5)nc4)cc3c21 + COC1C(OC(N)=O)C(O)C(Oc2ccc3c(O)c(NC(=O)c4ccc(O)c(CC=C(C)C)c4)c(=O)oc3c2C)OC1(C)C in your reply.
Result: 118

Task: Supply measured viability, T/C of C=CCn1c(=O)c2cnc(Nc3ccc(N4CCN(C)CC4)cc3)nc2n1-c1cccc(C(C)(C)O)n1 + Nc1ccc(C#CCN(C(=O)Cc2ncc(C(F)(F)F)cc2C(F)(F)F)c2ccc(F)cc2)nn1 in your reply.
Result: 110

Task: Supply measured viability, T/C of O=C(Nc1ccc(O)c(NS(=O)(=O)c2ccc(F)cc2)c1)c1ccc(-c2ccccc2)cc1 + Nc1ccc(C#CCN(C(=O)Cc2ncc(C(F)(F)F)cc2C(F)(F)F)c2ccc(F)cc2)nn1 in your reply.
Result: 103

###

tested on: 192522-019-R-J2-PDC complex tumor spheroid viability; experiment: Anticancer human tumor 192522-019-R-J2-PDC cell line growth inhibition [POLQ]; conditions: second compound 0.0316 µM; first compound 0.1 µM; stronger effect = lower value;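 further: spheroids exposed to drugs for seven days before reading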;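 on viability, T/C: 100% = DMSO vehicle control viability in luminescence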
readout label: viability, T/C (%)
Give the value, in units of %, as a plain number.

Task: Send back 192522-019-R-J2-PDC complex tumor spheroid viability viability, T/C of O=C(c1cc(Cc2n[nH]c(=O)c3ccccc23)ccc1F)N1CCN(C(=O)C2CC2)CC1 + Cc1cccc(N(C)C(=O)C2C(O)CCN2c2nc(C)cc(C(F)(F)F)c2C#N)c1 only.
Result: 82.3

Task: Send back 192522-019-R-J2-PDC complex tumor spheroid viability viability, T/C of O=C(c1cc(Cc2n[nH]c(=O)c3ccccc23)ccc1F)N1CCN(C(=O)C2CC2)CC1 + COC1C(OC(N)=O)C(O)C(Oc2ccc3c(O)c(NC(=O)c4ccc(O)c(CC=C(C)C)c4)c(=O)oc3c2C)OC1(C)C only.
Result: 95.1

Task: Send back 192522-019-R-J2-PDC complex tumor spheroid viability viability, T/C of CC(C)n1c(=O)n(C)c2cnc3cc(F)c(-c4ccc(OCCCN5CCCCC5)nc4)cc3c21 + COC1C(OC(N)=O)C(O)C(Oc2ccc3c(O)c(NC(=O)c4ccc(O)c(CC=C(C)C)c4)c(=O)oc3c2C)OC1(C)C only.
Result: 93.2

Task: Send back 192522-019-R-J2-PDC complex tumor spheroid viability viability, T/C of Cn1ncnc1[C@H]1c2n[nH]c(=O)c3cc(F)cc(c23)N[C@@H]1c1ccc(F)cc1 + Cc1cccc(N(C)C(=O)C2C(O)CCN2c2nc(C)cc(C(F)(F)F)c2C#N)c1 only.
Result: 88.6

Task: Send back 192522-019-R-J2-PDC complex tumor spheroid viability viability, T/C of CC1COCCN1c1cc(-c2ccnn2C)c2ccnc(-c3ccn[nH]3)c2n1 (stereo not given) + Cc1cccc(N(C)C(=O)C2C(O)CCN2c2nc(C)cc(C(F)(F)F)c2C#N)c1 only.
Result: 73

Task: Send back 192522-019-R-J2-PDC complex tumor spheroid viability viability, T/C of O=C(Nc1ccc(O)c(NS(=O)(=O)c2ccc(F)cc2)c1)c1ccc(-c2ccccc2)cc1 + Cc1cccc(N(C)C(=O)C2C(O)CCN2c2nc(C)cc(C(F)(F)F)c2C#N)c1 only.
Result: 97.5

Task: Send back 192522-019-R-J2-PDC complex tumor spheroid viability viability, T/C of C=CC(=O)N1CCN(c2nc(=O)n(-c3c(C)ccnc3C(C)C)c3nc(-c4c(O)cccc4F)c(F)cc23)C(C)C1 (stereo not given) + Nc1ccc(C#CCN(C(=O)Cc2ncc(C(F)(F)F)cc2C(F)(F)F)c2ccc(F)cc2)nn1 only.
Result: 99.7

Task: Send back 192522-019-R-J2-PDC complex tumor spheroid viability viability, T/C of CCc1c2c(nc3ccc(O)cc13)-c1cc3c(c(=O)n1C2)COC(=O)[C@]3(O)CC + Cc1cccc(N(C)C(=O)C2C(O)CCN2c2nc(C)cc(C(F)(F)F)c2C#N)c1 only.
Result: 53.6

Task: Send back 192522-019-R-J2-PDC complex tumor spheroid viability viability, T/C of CCCS(=O)(=O)Nc1ccc(F)c(C(=O)c2c[nH]c3ncc(-c4ccc(Cl)cc4)cc23)c1F + Nc1ccc(C#CCN(C(=O)Cc2ncc(C(F)(F)F)cc2C(F)(F)F)c2ccc(F)cc2)nn1 only.
Result: 95.2

Task: Send back 192522-019-R-J2-PDC complex tumor spheroid viability viability, T/C of CCCS(=O)(=O)Nc1ccc(F)c(C(=O)c2c[nH]c3ncc(-c4ccc(Cl)cc4)cc23)c1F + COC1C(OC(N)=O)C(O)C(Oc2ccc3c(O)c(NC(=O)c4ccc(O)c(CC=C(C)C)c4)c(=O)oc3c2C)OC1(C)C only.
Result: 97.6

###

tested on: 192522-019-R-J2-PDC complex tumor spheroid viability; test: Anticancer human tumor 192522-019-R-J2-PDC cell line growth inhibition [POLQ]; settings: curve of first compound; second compound 1 µM;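 further: spheroids exposed to drugs for seven days before reading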
What IC50 was measured for each of the following?
Give the value, in units of µM, as a plain number.

Task: Supply measured IC50 of CCc1c2c(nc3ccc(O)cc13)-c1cc3c(c(=O)n1C2)COC(=O)[C@]3(O)CC + Nc1ccc(C#CCN(C(=O)Cc2ncc(C(F)(F)F)cc2C(F)(F)F)c2ccc(F)cc2)nn1 in your reply.
Result: 0.129

Task: Supply measured IC50 of CC1COCCN1c1cc(C2(S(C)(=N)=O)CC2)nc(-c2ccnc3[nH]ccc23)n1 (stereo not given) + Cc1cccc(N(C)C(=O)C2C(O)CCN2c2nc(C)cc(C(F)(F)F)c2C#N)c1 in your reply.
Result: 5.72

Task: Supply measured IC50 of CCc1c2c(nc3ccc(O)cc13)-c1cc3c(c(=O)n1C2)COC(=O)[C@]3(O)CC + Cc1cccc(N(C)C(=O)C2C(O)CCN2c2nc(C)cc(C(F)(F)F)c2C#N)c1 in your reply.
Result: 0.229

Task: Supply measured IC50 of CC1COCCN1c1cc(C2(O)CC3CCC(C2)O3)c2cnn(-c3ccn[nH]3)c2n1 (stereo not given) + COC1C(OC(N)=O)C(O)C(Oc2ccc3c(O)c(NC(=O)c4ccc(O)c(CC=C(C)C)c4)c(=O)oc3c2C)OC1(C)C in your reply.
Result: 0.254

###

tested on: 192522-019-R-J2-PDC complex tumor spheroid viability; test: Anticancer human tumor 192522-019-R-J2-PDC cell line growth inhibition [POLQ]; conditions: second compound 10 µM; first compound 1 µM; stronger effect = lower value;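 further: spheroids exposed to drugs for seven days before reading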;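 on viability, T/C: 100% = DMSO vehicle control viability in luminescence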
What viability, T/C was measured for each of the following?
Give the value, in units of %, as a plain number.

Task: Supply measured viability, T/C of C=CCn1c(=O)c2cnc(Nc3ccc(N4CCN(C)CC4)cc3)nc2n1-c1cccc(C(C)(C)O)n1 + Nc1ccc(C#CCN(C(=O)Cc2ncc(C(F)(F)F)cc2C(F)(F)F)c2ccc(F)cc2)nn1 in your reply.
Result: 40.2

Task: Supply measured viability, T/C of COc1ccc([C@@H](O)c2cc(-c3ncnc4cc(N5CCOCC5)ccc34)c(F)cc2Cl)nn1 + Nc1ccc(C#CCN(C(=O)Cc2ncc(C(F)(F)F)cc2C(F)(F)F)c2ccc(F)cc2)nn1 in your reply.
Result: 102

Task: Supply measured viability, T/C of CCCS(=O)(=O)Nc1ccc(F)c(C(=O)c2c[nH]c3ncc(-c4ccc(Cl)cc4)cc23)c1F + Cc1cccc(N(C)C(=O)C2C(O)CCN2c2nc(C)cc(C(F)(F)F)c2C#N)c1 in your reply.
Result: 106

Task: Supply measured viability, T/C of Nc1ccn(C2OC(CO)C(O)C2(F)F)c(=O)n1 (stereo not given) + Nc1ccc(C#CCN(C(=O)Cc2ncc(C(F)(F)F)cc2C(F)(F)F)c2ccc(F)cc2)nn1 in your reply.
Result: 84.6

Task: Supply measured viability, T/C of COc1ccc([C@@H](O)c2cc(-c3ncnc4cc(N5CCOCC5)ccc34)c(F)cc2Cl)nn1 + COC1C(OC(N)=O)C(O)C(Oc2ccc3c(O)c(NC(=O)c4ccc(O)c(CC=C(C)C)c4)c(=O)oc3c2C)OC1(C)C in your reply.
Result: 108

Task: Supply measured viability, T/C of COc1cc(C2c3cc4c(cc3C(OC3OC5COC(C)OC5C(O)C3O)C3COC(=O)C23)OCO4)cc(OC)c1O (stereo not given) + COC1C(OC(N)=O)C(O)C(Oc2ccc3c(O)c(NC(=O)c4ccc(O)c(CC=C(C)C)c4)c(=O)oc3c2C)OC1(C)C in your reply.
Result: 88.5

Task: Supply measured viability, T/C of CC1COCCN1c1cc(C2(S(C)(=N)=O)CC2)nc(-c2ccnc3[nH]ccc23)n1 (stereo not given) + COC1C(OC(N)=O)C(O)C(Oc2ccc3c(O)c(NC(=O)c4ccc(O)c(CC=C(C)C)c4)c(=O)oc3c2C)OC1(C)C in your reply.
Result: 95.7

Task: Supply measured viability, T/C of CCc1cc2c(N3CCc4c(cc(Cn5ccnc5)cc4-c4cn(C)nc4C(F)(F)F)C3=O)ccnc2c(OC)n1 + Nc1ccc(C#CCN(C(=O)Cc2ncc(C(F)(F)F)cc2C(F)(F)F)c2ccc(F)cc2)nn1 in your reply.
Result: 86

Task: Supply measured viability, T/C of C=CCn1c(=O)c2cnc(Nc3ccc(N4CCN(C)CC4)cc3)nc2n1-c1cccc(C(C)(C)O)n1 + Cc1cccc(N(C)C(=O)C2C(O)CCN2c2nc(C)cc(C(F)(F)F)c2C#N)c1 in your reply.
Result: 45.6

Task: Supply measured viability, T/C of COc1cc2cc(C(=O)CCC(=O)O)sc2cc1OC + COC1C(OC(N)=O)C(O)C(Oc2ccc3c(O)c(NC(=O)c4ccc(O)c(CC=C(C)C)c4)c(=O)oc3c2C)OC1(C)C in your reply.
Result: 109
